target-or-system: B2 receptor
Sequence (P30411 whole entry): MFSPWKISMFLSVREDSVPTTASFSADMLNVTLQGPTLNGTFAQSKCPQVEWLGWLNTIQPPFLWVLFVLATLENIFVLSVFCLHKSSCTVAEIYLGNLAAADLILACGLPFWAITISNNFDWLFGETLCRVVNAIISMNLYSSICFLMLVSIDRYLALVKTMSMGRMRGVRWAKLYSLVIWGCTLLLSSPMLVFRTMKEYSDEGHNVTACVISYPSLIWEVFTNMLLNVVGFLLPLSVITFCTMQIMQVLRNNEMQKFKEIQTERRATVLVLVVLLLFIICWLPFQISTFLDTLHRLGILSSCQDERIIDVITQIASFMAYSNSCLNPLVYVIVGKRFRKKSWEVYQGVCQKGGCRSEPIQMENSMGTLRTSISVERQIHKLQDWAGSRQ
test: cell-based or functional assay
Where no end group is shown, it is not given here. [ ]: non-standard residue; d: D form. 2Thi = N[C@@H](Cc1cccs1)C(=O)O
Recorded Relative affinity activity (B2-NFAT-CHO-K1 luciferase reporter gene assay, from EC50), one value per entry.
property-label: Relative affinity activity (B2-NFAT-CHO-K1 luciferase reporter gene assay, from EC50)

>  <binder>
KRPPG[2Thi]SPFRKRPPG[2Thi]SPFR [Lys-BKm14]

>  <recorded-value>
100%

$$$$
>  <binder>
KRPPGXSPFR ({THI} (β-2-thiophenylalanine) at position 6: KRPPG{THI}SPFR) [Lys-BKm01]

>  <recorded-value>
100%

$$$$
>  <binder>
KRPPG[2Thi]SPFRRPPG[2Thi]SPFR [Lys-BKm12]

>  <recorded-value>
100%

$$$$
>  <binder>
KRPPGHSPFR [Lys-BKm03]

>  <recorded-value>
< 10%

$$$$

Data credit: patent US20250295792A1
